# Tested on: Abeta oligomer effects on membrane trafficking in mature primary neurons
# Assay: Primary neuron-based functional screening assay (membrane trafficking/exocytosis, Example DD)
# Assay type: cell-based, rat
# Condition info: Rattus norvegicus, Primary neuron, 504 h; FIG. 2B, primary neurons 3 weeks in vitro; read-out: EC50 for inhibition of oligomer effects on membrane trafficking
Endpoint: pEC50
Answers are plain numbers, as −log10 of the molar value.

[Q] Item under review: COc1cc(CCC(C)NCc2ccc(C(F)(F)F)cc2)ccc1O (stereo not shown) . Reported pEC50?
[A] 5.15

====

# Assay: Pharmacokinetic studies (Example CC), plasma
# Format: in vivo
# Condition info: rat, iv, rats, injected intravenously at 1 mg/Kg
Endpoint: half-life (min)
Give bare numbers, in min.

[Q] Item under review: COc1cc(CCC(C)NCc2ccc(Cl)cc2)ccc1O (stereo not shown) . Reported half-life?
[A] 46
